Biological target: erbB2 in MCF7 derived cell line (Clone 24 cells) (Homo sapiens)
Construct: a cell line that overexpresses full length wild type erbB2 protein; expressed in transfected cells; host or cells: MCF7 (breast carcinoma) cells, 'Clone 24'
Sequence (P04626 23-1255): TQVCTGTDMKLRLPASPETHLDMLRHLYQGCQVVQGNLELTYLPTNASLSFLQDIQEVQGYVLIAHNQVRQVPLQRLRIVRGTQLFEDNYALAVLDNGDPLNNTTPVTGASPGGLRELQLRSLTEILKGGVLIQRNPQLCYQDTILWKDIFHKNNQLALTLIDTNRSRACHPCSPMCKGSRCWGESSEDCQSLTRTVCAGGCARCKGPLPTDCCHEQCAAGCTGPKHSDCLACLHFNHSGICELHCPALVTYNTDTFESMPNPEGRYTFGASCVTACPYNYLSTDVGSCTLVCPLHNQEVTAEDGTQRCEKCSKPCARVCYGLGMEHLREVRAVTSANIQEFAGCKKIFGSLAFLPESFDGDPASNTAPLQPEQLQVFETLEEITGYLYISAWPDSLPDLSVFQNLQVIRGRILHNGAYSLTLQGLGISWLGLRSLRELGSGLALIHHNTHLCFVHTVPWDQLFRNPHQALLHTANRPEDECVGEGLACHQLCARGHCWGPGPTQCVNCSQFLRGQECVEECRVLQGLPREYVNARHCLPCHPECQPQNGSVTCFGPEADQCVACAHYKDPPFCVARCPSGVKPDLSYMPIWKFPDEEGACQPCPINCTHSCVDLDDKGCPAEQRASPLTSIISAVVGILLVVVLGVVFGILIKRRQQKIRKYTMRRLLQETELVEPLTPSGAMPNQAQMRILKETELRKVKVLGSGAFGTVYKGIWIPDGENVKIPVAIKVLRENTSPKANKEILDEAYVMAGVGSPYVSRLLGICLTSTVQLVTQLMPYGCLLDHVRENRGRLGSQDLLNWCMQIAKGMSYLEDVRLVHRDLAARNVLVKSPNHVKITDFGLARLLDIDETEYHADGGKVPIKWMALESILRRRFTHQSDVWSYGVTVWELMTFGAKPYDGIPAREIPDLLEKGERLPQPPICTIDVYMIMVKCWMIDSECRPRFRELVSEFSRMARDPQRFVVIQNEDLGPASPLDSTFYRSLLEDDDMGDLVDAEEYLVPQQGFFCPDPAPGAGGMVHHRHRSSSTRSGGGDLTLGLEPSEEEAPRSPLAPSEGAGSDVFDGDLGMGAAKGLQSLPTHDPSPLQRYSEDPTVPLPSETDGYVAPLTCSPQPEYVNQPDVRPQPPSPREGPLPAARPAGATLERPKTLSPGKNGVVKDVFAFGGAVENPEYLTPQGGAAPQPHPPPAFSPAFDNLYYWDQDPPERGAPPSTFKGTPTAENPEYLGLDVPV
Assay: Clone 24 phospho-erbB2 cell assay, Test (c)
Type: cell-based
Conditions: MCF7 derived Clone 24 cells, 4 hours; read-out: IC50 Test (c): Inhibition of erbB2 tyrosine kinase protein phosphorylation
measured parameter: IC50 (nM)
Numbers only, in nM.

# lookup: IC50 of O=C(CO)N1CCCC[C@@H]1COc1cccc2ncnc(Nc3ccc4c(ccn4Cc4cscn4)c3)c12 [Example 2]
35

----------
Target: EGFR tyrosine kinase (Homo sapiens, UniProt P00533)
Construct: Recombinant intracellular fragments of EGFR, erbB2 and erbB4; made in house; host or cells: baculovirus/Sf21 insect cells
Sequence (P00533 669-1210 limits assumed): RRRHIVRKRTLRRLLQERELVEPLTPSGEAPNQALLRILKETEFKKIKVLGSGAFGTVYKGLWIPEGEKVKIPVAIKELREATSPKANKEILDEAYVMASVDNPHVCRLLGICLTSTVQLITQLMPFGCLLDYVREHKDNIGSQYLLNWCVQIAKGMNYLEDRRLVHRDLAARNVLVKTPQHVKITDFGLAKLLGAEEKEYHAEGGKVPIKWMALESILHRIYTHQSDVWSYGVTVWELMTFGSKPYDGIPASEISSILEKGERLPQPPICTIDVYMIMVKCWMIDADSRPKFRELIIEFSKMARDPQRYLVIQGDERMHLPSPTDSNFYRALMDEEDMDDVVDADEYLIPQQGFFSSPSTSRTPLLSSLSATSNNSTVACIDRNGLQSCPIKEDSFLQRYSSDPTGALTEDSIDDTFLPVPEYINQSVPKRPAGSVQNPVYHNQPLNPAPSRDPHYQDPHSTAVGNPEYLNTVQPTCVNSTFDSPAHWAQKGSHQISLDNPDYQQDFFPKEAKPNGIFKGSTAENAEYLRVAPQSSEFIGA
Assay: Protein tyrosine kinase phosphorylation assay, Test (a), EGFR
Format: biochemical
Details: ATP at Km concentration; read-out: IC50 Test (a): Inhibition of EGFR tyrosine kinase protein phosphorylation
Description: This test measures the ability of a test compound to inhibit the phosphorylation of a tyrosine containing polypeptide substrate by EGFR, erbB2 and erbB4 tyrosine kinase enzyme. […] Constitutive kinase activity of these recombinant proteins was determined by their ability to phosphorylate a synthetic peptide (made up of a random co-polymer of Glutamic Acid, Alanine and Tyrosine in the ratio of 6:3:1). […] The immobilised phospho-peptide product of the reaction was detected by immunological methods. […]
measured parameter: IC50
Phrase the answer as number then unit, nothing more needed.

Any idea what IC50 was measured for `O=C(CO)N1CCCC[C@@H]1COc1cccc2ncnc(Nc3ccc4c(ccn4Cc4ccccn4)c3)c12` ?
1 nM

Continue with the molecule presented below.
Quick one: IC50 of `O=C(CO)N1CCCC[C@@H]1COc1cccc2ncnc(Nc3ccc4c(ccn4Cc4cscn4)c3)c12` ?
1 nM

----------
Consider the following molecules; for each one, report its pIC50.
Target: erbB2 tyrosine kinase (Homo sapiens)
Construct: Recombinant intracellular fragments of EGFR, erbB2 and erbB4
Sequence (P04626 676-1255 limits assumed): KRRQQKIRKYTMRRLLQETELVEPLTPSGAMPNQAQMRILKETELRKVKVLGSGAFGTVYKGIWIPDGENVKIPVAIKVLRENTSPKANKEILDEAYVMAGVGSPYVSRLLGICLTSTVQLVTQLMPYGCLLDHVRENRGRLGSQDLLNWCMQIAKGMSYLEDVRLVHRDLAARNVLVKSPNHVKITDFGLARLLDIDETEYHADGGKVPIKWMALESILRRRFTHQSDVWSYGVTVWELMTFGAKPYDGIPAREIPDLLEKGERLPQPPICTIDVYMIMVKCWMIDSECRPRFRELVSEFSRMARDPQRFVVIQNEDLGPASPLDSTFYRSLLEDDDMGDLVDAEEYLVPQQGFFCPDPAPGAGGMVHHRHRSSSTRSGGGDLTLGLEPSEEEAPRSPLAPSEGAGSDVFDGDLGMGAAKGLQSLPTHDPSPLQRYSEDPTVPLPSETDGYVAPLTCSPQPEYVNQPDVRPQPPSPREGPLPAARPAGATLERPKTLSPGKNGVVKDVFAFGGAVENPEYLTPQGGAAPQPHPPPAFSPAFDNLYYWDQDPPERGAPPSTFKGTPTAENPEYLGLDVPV
Assay: Protein tyrosine kinase phosphorylation assay, Test (a), erbB2
Details: ATP at Km concentration; read-out: IC50 Test (a): Inhibition of erbB2 tyrosine kinase protein phosphorylation
One number for each entry, as −log10 of the molar value.

Fill blank: measured pIC50 of the molecule O=C(CO)N1CCCC[C@@H]1COc1cccc2ncnc(Nc3ccc4c(ccn4Cc4cscn4)c3)c12 [Example 2] is ____.
7.42

---
# input molecule: O=C(CO)N1CCCC[C@@H]1COc1cccc2ncnc(Nc3ccc4c(ccn4Cc4ccccn4)c3)c12 [Example 1] ; wanted: its pIC50
9.00
